Exercise: state measured log10 of LC50 for each of the compounds provided.
System: Bemisia tabaci
Assay: Insecticidal activity against Bemisia tabaci Bupro-SEL (sweet potato whitefly) from 10 generation buprofezin resistance assessed as mortality measured after 18 to 20 days
Type: functional
All values: log10 LC50 [ugAi/ml].

>>> numericresult("CCOC(=O)OC1=C(c2cc(C)ccc2C)C(=O)N[C@]12CC[C@@H](OC)CC2")
0.02
>>> numericresult("CC(COc1ccc(Oc2ccccc2)cc1)Oc1ccccn1 (stereo not given)")
1.71
>>> numericresult("O=[N+]([O-])/N=C1\\NCCN1Cc1ccc(Cl)nc1")
0.34
>>> numericresult("CC(C)N1C(=O)N(c2ccccc2)CS/C1=N\\C(C)(C)C")
3.15

Next:
[ask] Recorded log10 of LC50 of C/C(=N\C#N)N(C)Cc1ccc(Cl)nc1 , please.
[reply] 0.61
